# Test system: RPMI-8226 leukemia
# procedure-text: NCI-60 one-dose screen, 48 h (100 = growth as untreated, 0 = no growth, -100 = all killed)
# assay-conditions: 10 µM
The panel holds about 83,000 compounds, 20% with a hit somewhere; the sample as a whole holds those more often.
measured-attribute: growth (%)

• Cc1ccc(C2C=C(c3ccc(Cl)cc3)N=C3SC=CN32)c(Br)c1 (stereo not given) = -0.582
• O=C(OCC1OC(n2cc(C(F)(F)F)c(=O)[nH]c2=O)CC1OC(=O)c1ccc([N+](=O)[O-])cc1)c1ccc([N+](=O)[O-])cc1 (stereo not given) = 71.9
• CCSc1nc2c([nH]1)c(=O)n(C)c(=S)n2C = 112
• O=C1/C(=C/c2ccc(O)cc2O)N=C2SCCCN12 = 103
• FC(F)(F)c1ccc(-c2ncc(-c3ccc(C(F)(F)F)cc3)c(NCc3cc(C(F)(F)F)cc(C(F)(F)F)c3)n2)cc1 = 53
